The reported numbers originate from ChEMBL document CHEMBL1275285.

Tested on: Bacillus subtilis
protocol_details: Antimicrobial activity against Bacillus subtilis IFO 3007 after 24 hrs
Format: functional
particulars: IFO 3007, 24 h
Please respond with reported MIC for every item in the list.
State just the number; it will be interpreted in µg/mL.

Query: Field request: MIC | item: `S=C(Nc1ccc(Cl)cc1)Nc1nnc(C23CC4CC(CC(C4)C2)C3)s1`
Response: 2

Query: Field request: MIC | item: `Fc1ccc(NC(=S)Nc2nnc(C34CC5CC(CC(C5)C3)C4)s2)cc1`
Response: 4

Query: Field request: MIC | item: CC1(C)S[C@@H]2[C@H](NC(=O)[C@H](N)c3ccccc3)C(=O)N2[C@H]1C(=O)O [AMPICILLIN]
Response: 0.5

Query: Field request: MIC | item: `O=C(O)Cn1nc(C23CC4CC(CC(C4)C2)C3)sc1=S`
Response: 2

Query: Field request: MIC | item: CC(C(=O)O)n1nc(C23CC4CC(CC(C4)C2)C3)sc1=S (racemic)
Response: 4
